targetOrSystem: Cannabinoid receptor (Mus musculus) (UniProt P47746+P47936)
Sequence (P47746 whole entry, looked up): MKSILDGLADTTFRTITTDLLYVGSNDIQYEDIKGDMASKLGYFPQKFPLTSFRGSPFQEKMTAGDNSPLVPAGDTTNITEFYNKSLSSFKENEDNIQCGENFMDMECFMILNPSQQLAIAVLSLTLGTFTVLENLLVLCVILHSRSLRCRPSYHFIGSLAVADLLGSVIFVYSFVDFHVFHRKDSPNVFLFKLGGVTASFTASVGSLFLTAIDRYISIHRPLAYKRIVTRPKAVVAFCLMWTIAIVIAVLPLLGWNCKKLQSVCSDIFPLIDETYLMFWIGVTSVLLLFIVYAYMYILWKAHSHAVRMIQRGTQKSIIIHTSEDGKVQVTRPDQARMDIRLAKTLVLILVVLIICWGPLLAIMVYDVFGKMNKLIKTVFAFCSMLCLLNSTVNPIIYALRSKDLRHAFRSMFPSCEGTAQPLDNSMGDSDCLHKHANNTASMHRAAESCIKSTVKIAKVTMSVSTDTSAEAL
Sequence (P47936 whole entry, looked up): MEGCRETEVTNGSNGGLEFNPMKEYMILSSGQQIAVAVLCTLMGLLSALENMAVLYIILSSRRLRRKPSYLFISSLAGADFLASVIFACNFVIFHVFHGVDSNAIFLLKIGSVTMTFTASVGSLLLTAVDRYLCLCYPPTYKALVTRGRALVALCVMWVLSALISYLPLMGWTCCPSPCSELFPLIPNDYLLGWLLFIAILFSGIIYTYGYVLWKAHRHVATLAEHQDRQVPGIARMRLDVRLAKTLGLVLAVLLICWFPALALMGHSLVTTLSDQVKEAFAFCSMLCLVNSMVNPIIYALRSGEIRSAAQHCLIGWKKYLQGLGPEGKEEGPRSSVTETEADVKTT
assayProtocol: Agonist activity at cannabinoid receptor in ICR mouse vas deferens assessed as inhibition of electrically induced contractions at 1.82 x 10^-5 M after 10 mins in presence of CB2 antagonist AM630 relative to control
Assay type: protein assay
measurementName: inhibition
Remember to follow the number with its unit.

Worked examples, 6 molecules total:
>>> df
                                 smilesdata  measurementname  resultvalue
0  O=C(c1cccc2ccccc12)n1nc(OCCCN2CCCC2)c2ccccc21       inhibition        89.5%
1  O=C(c1cccc(Cl)c1Cl)n1nc(OCCN2CCCCC2)c2ccccc21       inhibition        78.2%
2  O=C(c1ccc2ccccc2c1)n1nc(OCCCN2CCCCC2)c2ccccc21       inhibition        49.1%
3  O=C(c1ccccc1Cl)n1nc(OCCCN2CCCCC2)c2ccccc21       inhibition        79.8%
4  O=C(c1cccc2ccccc12)n1nc(OCCCN2CCCCC2)c2ccccc21       inhibition        56.7%
5  O=C(c1cccc(F)c1F)n1nc(OCCN2CCCC2)c2ccccc21       inhibition        30.1%

Q: Reported inhibition, molecule COc1cc(C(=O)n2nc(OCCN3CCCC3)c3ccccc32)cc(OC)c1OC : ____
A: 69.5%

Q: Reported inhibition, molecule O=C(c1cccc2ccccc12)n1nc(OCCN2CCCCC2)c2ccccc21 : ____
A: 92%

Q: Reported inhibition, molecule O=C(c1c(F)ccc(F)c1F)n1nc(OCCN2CCCCC2)c2ccccc21 : ____
A: 49.1%

Q: Reported inhibition, molecule COc1ccc(CC(=O)n2nc(OCCN3CCCC3)c3ccccc32)cc1 : ____
A: 78.6%

Q: Reported inhibition, molecule O=C(c1cccc(Cl)c1F)n1nc(OCCCN2CCCCC2)c2ccccc21 : ____
A: 58.3%

Each recorded value in this set is attributed to ChEMBL document CHEMBL4400519.
